biological target: human MGL from HeLa cells (Homo sapiens, UniProt Q99685); construct: combining endogenously expressed MGL from HeLa cells with test compounds; endogenous in cells; host or cells: HeLa cells / cell homogenates; experiment: In vitro MGL activity assay: [glycerol-1,3-3H]-oleyl glycerol cleavage by MGL from HeLa cells; format: biochemical; settings: 300 nM [Glycerol-1,3-3H]-oleyl glycerol, one hour incubation
Sequence (Q99685 whole entry): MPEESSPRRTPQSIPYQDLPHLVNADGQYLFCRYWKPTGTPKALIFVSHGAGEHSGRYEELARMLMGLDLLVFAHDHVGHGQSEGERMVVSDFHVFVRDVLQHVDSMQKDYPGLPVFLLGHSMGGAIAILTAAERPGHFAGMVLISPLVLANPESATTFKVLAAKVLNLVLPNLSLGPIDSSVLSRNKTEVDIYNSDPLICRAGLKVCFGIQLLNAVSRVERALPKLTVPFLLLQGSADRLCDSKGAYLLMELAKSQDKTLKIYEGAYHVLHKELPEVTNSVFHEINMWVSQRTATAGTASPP
Readout Type: pIC50
For clarity, pIC50 is expressed as the negative log10 of concentration in mol/L.

As a guide, the following entries are already answered.
>>> df
                                   compound  measured_number
0  C[C@H]1c2nn(C)c(-c3cc(F)c(F)c(F)c3)c2CCN1C(=O)c1c(F)cccc1-n1cncn1 [Example 280]             8.11
1  C[C@H]1c2nn(C)c(-c3cccc(Cl)c3)c2CCN1C(=O)c1ccc2nccnc2c1 (single isomer, unassigned) [Example 134]             8.37
2  Cc1cc(C(=O)N2CCc3c(nn(C)c3-c3cc(F)c(F)c(F)c3)[C@@H]2C)cc(-n2nccn2)c1 [Example 286]             8.64
3  C[C@H]1c2nn(C)c(-c3cc(F)c(F)c(F)c3)c2CCN1C(=O)c1c(F)cccc1-n1nccn1 [Example 288]             7.22
4  C[C@H]1c2nn(C)c(-c3cc(F)cc(F)c3)c2CCN1C(=O)c1cc(OCCF)ccc1Cl [Example 146]             8.43

State the recorded pIC50 for this entry: C[C@H]1c2nn(C)c(-c3cc(F)c(F)c(F)c3)c2CCN1C(=O)c1cc2cccnc2n1C [Example 222]
7.19

Any idea what its pIC50 is? The compound is Cn1nc2c(c1-c1ccccc1)CCN(C(=O)c1cccc3ncccc13)C2 [Example 89]
7.25
